System: Enterobacterales
test-name: Antibacterial activity against Carbapenem-Resistant Enterobacterales 19 expressing blaNDM-1 clinical isolates assessed as meropenem MIC incubated for 16 to 18 hrs by broth microdilution method
Assay type: functional
cond: time 16-18 hrs
measure: log10(MIC) (log10 of the value in µg/mL)
Could you please treat all values as log10 of MIC in µg/mL?

Could you report log10(MIC) for every entry in the following list?
1. Nc1cccc(-c2cn(-c3cccc(CP(=O)(O)O)c3)nn2)c1
2. Nc1cccc(-c2cn(-c3cccc(C(c4ccc(F)cc4)P(=O)(O)O)c3)nn2)c1 (stereo unspecified)

1.20
0.90

###

test-name: Inhibition of recombinant VIM-5 (unknown origin) expressed in Escherichia coli (DE3) cells using FC5 as substrate by microplate reader assay
Kindly state pIC50 for each of the entries shown.
One number for each entry, as −log10 of the molar value.

Recorded results for 5 molecules are shown here.
{"molecule": "O=C(O)c1cccc(-n2cc(-c3cccc(Cl)c3)nn2)c1C(=O)O", "pIC50": 4.49}
{"molecule": "O=P(O)(O)Cc1cccc(-n2cc(-c3ccc(Br)cc3)nn2)c1", "pIC50": 7.30}
{"molecule": "O=P(O)(O)Cc1ccc(-n2cc(-c3ccccc3)nn2)cc1", "pIC50": 5.82}
{"molecule": "O=P(O)(O)Cc1cccc(-n2cc(-c3cccc(F)c3)nn2)c1", "pIC50": 7.10}
{"molecule": "CCc1ccc(C(c2cccc(-n3cc(-c4cccc(N)c4)nn3)c2)P(=O)(O)O)cc1 (configuration not stated)", "pIC50": 8.15}

Could you report pIC50 for every entry in the following list?
1. COc1ccc(C(c2cccc(-n3cc(-c4cccc(N)c4)nn3)c2)P(=O)(O)O)cc1 (configuration not stated)
2. CCCCc1ccc(C(c2cccc(-n3cc(-c4cccc(N)c4)nn3)c2)P(=O)(O)O)cc1 (configuration not stated)
3. Cc1ccc(-c2ccc(C(c3cccc(-n4cc(-c5cccc(N)c5)nn4)c3)P(=O)(O)O)cc2)cc1 (configuration not stated)
4. CC(C)(C)c1cn(-c2cccc(CP(=O)(O)O)c2)nn1
5. Nc1cccc(-c2cn(-c3cccc(C(c4ccc(-c5ccc(Br)cc5)cc4)P(=O)(O)O)c3)nn2)c1 (configuration not stated)
6. Nc1ccccc1-c1cn(-c2ccc(CP(=O)(O)O)cc2)nn1

[7.60, 9.00, 8.70, 6.28, 8.70, 5.64]

Could you report pIC50 for every entry in the following list?
1. Nc1cccc(-c2cn(-c3cccc(C(c4cccc5ccccc45)P(=O)(O)O)c3)nn2)c1 (configuration not stated)
2. COc1cccc(-c2cn(-c3cccc(CP(=O)(O)O)c3)nn2)c1
3. O=P(O)(O)Cc1cccc(-n2cc(-c3ccc(F)cc3)nn2)c1
4. Nc1cccc(-c2cn(-c3cccc(C(c4ccc(Cl)cc4)P(=O)(O)O)c3)nn2)c1 (configuration not stated)
5. Cc1ccc(-c2cn(-c3cccc(CP(=O)(O)O)c3)nn2)cc1

9.54
7.03
7.20
9.37
7.35

Could you report pIC50 for every entry in the following list?
1. OB(O)c1cccc(-c2cn(-c3cccc(Cl)c3)nn2)c1
2. O=P(O)(O)Cc1cccc(-n2cc(CNc3ccccc3)nn2)c1
3. NCc1cccc(-c2cn(-c3cccc(CP(=O)(O)O)c3)nn2)c1
4. O=C(CCn1cc(-c2cccc(B(O)O)c2)nn1)Nc1cccc(Cl)c1
5. O=C(O)c1cccc(-n2cc(Cc3ccccc3)nn2)c1C(=O)O
6. O=P(O)(O)Cc1ccccc1-n1cc(CNc2ccccc2)nn1
7. O=C(O)c1cccc(-n2cc(CNc3ccccc3)nn2)c1C(=O)O
8. CCCCc1cn(-c2cccc(CP(=O)(O)O)c2)nn1

1. 4.83
2. 6.19
3. 6.55
4. 4.31
5. 4.06
6. 4.83
7. 4.14
8. 5.76

Param item = O=C(NCc1cccc(-c2cn(-c3cccc(CP(=O)(O)O)c3)nn2)c1)C(F)(F)F ; retrieve measured pIC50.
6.96

###

Tested on: Escherichia coli
test-name: Antibacterial activity against Escherichia coli BAA2452 expressing blaNDM-1 clinical isolates assessed as fold potentiation incubated for 16 to 18 hrs by broth microdilution method
Type: functional
cond: time 16-18 hrs
Kindly state fold change (FC) for each of the entries shown.

Recorded results for 3 compounds are shown here.
{"compound": "Nc1cccc(-c2cn(-c3cccc(C(c4ccc(F)cc4)P(=O)(O)O)c3)nn2)c1 (stereo unspecified)", "fold change (FC)": 8}
{"compound": "CCc1ccc(C(c2cccc(-n3cc(-c4cccc(N)c4)nn3)c2)P(=O)(O)O)cc1 (stereo unspecified)", "fold change (FC)": 16}
{"compound": "Cc1ccc(C(c2cccc(-n3cc(-c4cccc(N)c4)nn3)c2)P(=O)(O)O)cc1 (stereo unspecified)", "fold change (FC)": 16}

Could you report fold change (FC) for every entry in the following list?
1. Nc1cccc(-c2cn(-c3cccc(C(c4ccc(Cl)cc4)P(=O)(O)O)c3)nn2)c1 (stereo unspecified)
2. Nc1cccc(-c2cn(-c3cccc(CP(=O)(O)O)c3)nn2)c1
3. O=P(O)(O)Cc1cccc(-n2cc(-c3ccccc3Br)nn2)c1
4. Nc1cccc(-c2cn(-c3cccc(C(c4ccc(Br)cc4)P(=O)(O)O)c3)nn2)c1 (stereo unspecified)
5. Nc1cccc(-c2cn(-c3cccc(C(c4cccc5ccccc45)P(=O)(O)O)c3)nn2)c1 (stereo unspecified)

1. 8
2. 4
3. 4
4. 8
5. 8

###

test-name: Inhibition of recombinant his tagged IMP1 (unknown origin) expressed in Escherichia coli (DE3) cells using FC5 as substrate by microplate reader assay
pIC50: −log10 of the molar value.
Cut-off 5 on pIC50, inclusive. At or above means 1; below means 0.

Known results for compounds:
{"compound": "Nc1cccc(-c2cn(-c3ccccc3CP(=O)(O)O)nn2)c1", "assigned-label": 0}
{"compound": "CCCCc1cn(-c2ccccc2CP(=O)(O)O)nn1", "assigned-label": 0}
{"compound": "O=P(O)(O)Cc1cccc(-n2cc(-c3ccccc3Br)nn2)c1", "assigned-label": 1}

Quick check, pIC50 >= 5? O=P(O)(O)Cc1cccc(-n2cc(-c3cccc(F)c3)nn2)c1
1

Quick check, pIC50 >= 5? OB(O)c1cccc(-c2cn(-c3ccccc3)nn2)c1
0

Quick check, pIC50 >= 5? O=C(O)c1cccc(-n2cc(CCO)nn2)c1C(=O)O
0

Quick check, pIC50 >= 5? Nc1ccc(-c2cn(-c3cccc(C(=O)O)c3C(=O)O)nn2)cc1
1

Quick check, pIC50 >= 5? O=C(O)c1cccc(-n2cc(-c3ccccc3)nn2)c1[N+](=O)[O-]
0

Quick check, pIC50 >= 5? O=[N+]([O-])c1ccc(Cn2cc(-c3cccc(B(O)O)c3)nn2)cc1
0

Quick check, pIC50 >= 5? O=P(O)(O)Cc1ccc(-n2cc(CNc3ccccc3)nn2)cc1
0

###

Tested on: Escherichia coli
test-name: Antibacterial activity against Escherichia coli BAA2452 expressing blaNDM-1 clinical isolates assessed as meropenem MIC incubated for 16 to 18 hrs by broth microdilution method
Type: functional
cond: time 16-18 hrs
measure: MIC
Answer as a quantity: numeral, then unit.

{"molecule": "CC(C)(C)c1ccc(C(c2cccc(-n3cc(-c4cccc(N)c4)nn3)c2)P(=O)(O)O)cc1 (stereo unspecified)", "tested-system": "Escherichia coli", "MIC": "16 µg/mL"}
{"molecule": "N#Cc1ccc(C(c2cccc(-n3cc(-c4cccc(N)c4)nn3)c2)P(=O)(O)O)cc1 (stereo unspecified)", "tested-system": "Escherichia coli", "MIC": "16 µg/mL"}

Could you report MIC for every entry in the following list?
1. CCc1ccc(C(c2cccc(-n3cc(-c4cccc(N)c4)nn3)c2)P(=O)(O)O)cc1 (stereo unspecified)
2. Nc1cccc(-c2cn(-c3cccc(C(c4ccc(Cl)cc4)P(=O)(O)O)c3)nn2)c1 (stereo unspecified)

["8 µg/mL", "16 µg/mL"]

###

Tested on: Escherichia coli
test-name: Antibacterial activity against Escherichia coli BAA2452 expressing blaNDM-1 clinical isolates assessed as meropenem MIC incubated for 16 to 18 hrs by broth microdilution method
Type: functional
cond: time 16-18 hrs
Kindly state MIC for each of the entries shown.
Numbers only, in mg/L.

Recorded results for 3 compounds are shown here.
{"compound": "CSc1ccc(C(c2cccc(-n3cc(-c4cccc(N)c4)nn3)c2)P(=O)(O)O)cc1 (stereo not given)", "measure": "MIC", "units-label": "mg/L", "recorded-measurement": 16}
{"compound": "O=[N+]([O-])c1ccc(Cn2cc(-c3cccc(B(O)O)c3)nn2)cc1", "measure": "MIC", "units-label": "mg/L", "recorded-measurement": 64}
{"compound": "Nc1cccc(-c2cn(-c3cccc(C(c4cccc5ccccc45)P(=O)(O)O)c3)nn2)c1 (stereo not given)", "measure": "MIC", "units-label": "mg/L", "recorded-measurement": 16}

Could you report MIC for every entry in the following list?
1. Cc1ccc(C(c2cccc(-n3cc(-c4cccc(N)c4)nn3)c2)P(=O)(O)O)cc1 (stereo not given)
2. O=P(O)(O)Cc1cccc(-n2cc(-c3ccccc3Br)nn2)c1

1. 8
2. 32
